- Test system: Canis familiaris
- measurement.notes: Drug level in iv dosed dog by gamma-scintillation counting analysis
- Format: ADME, organism-based, Canis lupus familiaris
- assay.setup: in vivo
observation.type: Drug uptake

[
  {
    "compound": "CC(C)CC1(CC(C)C)NC(=O)N[11C]1=O",
    "test.value": "Active"
  },
  {
    "compound": "CCC1(CC)NC(=O)N[11C]1=O",
    "test.value": "Active"
  },
  {
    "compound": "CC1(CCC(=O)O)NC(=O)N[11C]1=O (stereo unspecified)",
    "test.value": "Active"
  },
  {
    "compound": "O=C1N[11C](=O)C2(CCCCC2)N1",
    "test.value": "Active"
  },
  {
    "compound": "CCCC1(CCC)NC(=O)N[11C]1=O",
    "test.value": "Active"
  }
]

Next compound, Drug uptake to be filled in.
Consider the compound shown here: CSCCC1NC(=O)N[11C]1=O (stereo unspecified) What is its recorded Drug uptake?
Active

----------
- Test system: Brain
- measurement.notes: Drug level in iv dosed dog brain by gamma-scintillation counting analysis
- Assay type: ADME, organism-based, Canis lupus familiaris
- assay.setup: in vivo
observation.type: Drug uptake

[
  {
    "compound": "O=C1N[11C](=O)C2(CCCCCCC2)N1",
    "Drug uptake": "Not Active"
  },
  {
    "compound": "O=C1N[11C](=O)C(c2ccccc2)N1c1ccccc1 (configuration not stated)",
    "Drug uptake": "Active"
  },
  {
    "compound": "O=C1N[11C](=O)C2(N1)c1ccccc1-c1ccccc12",
    "Drug uptake": "Not Active"
  },
  {
    "compound": "O=C1N[11C](=O)C(c2ccccc2)(c2ccccc2)N1",
    "Drug uptake": "Active"
  },
  {
    "compound": "O=C1N[11C](=O)C(c2ccc(Cl)cc2)(c2ccc(Cl)cc2)N1",
    "Drug uptake": "Active"
  }
]

What measured Drug uptake goes with O=C1N[11C](=O)C2(CCCCCC2)N1 ?
Active

Which measured Drug uptake value corresponds to O=C1N[11C](=O)C2(CCCc3ccccc32)N1 (configuration not stated) ?
Not Active
